Target: T1, IL-13RA2 huFc (human)
T1 construct: Expressed in 293F cells, purified on protein A; also called human IL13RA2; recombinant IL-13RA2
T1 sequence (chain, as listed by the source limits assumed): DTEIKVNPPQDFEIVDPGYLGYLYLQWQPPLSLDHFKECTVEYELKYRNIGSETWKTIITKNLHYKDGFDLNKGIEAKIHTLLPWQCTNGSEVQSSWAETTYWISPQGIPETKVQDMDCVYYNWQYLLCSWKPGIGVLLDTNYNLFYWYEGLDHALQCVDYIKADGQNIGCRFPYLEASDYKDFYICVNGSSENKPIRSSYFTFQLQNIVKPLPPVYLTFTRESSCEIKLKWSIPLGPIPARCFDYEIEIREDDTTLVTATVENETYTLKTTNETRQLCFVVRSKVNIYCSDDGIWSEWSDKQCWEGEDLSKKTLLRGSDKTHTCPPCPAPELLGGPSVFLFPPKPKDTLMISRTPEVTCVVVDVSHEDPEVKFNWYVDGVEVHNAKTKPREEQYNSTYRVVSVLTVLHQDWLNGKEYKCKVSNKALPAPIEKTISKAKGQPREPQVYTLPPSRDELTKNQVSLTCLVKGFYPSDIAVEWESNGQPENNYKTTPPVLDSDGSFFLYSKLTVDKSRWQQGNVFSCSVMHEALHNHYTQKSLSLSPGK
Test: SPR (Biacore T200), scFv_Fc forms on IL-13RA2 huFc, summary table
Protocol: IL-13RA2 huFc was coated on the CMS chip by amino coupling, coated to about 500 RU, and the gradiently diluted antibodies were passed through the antigen-coated channel at a flow rate of 30 ul/min as a mobile phase. […] The experimental data was analyzed by BIAevaluation 3.2 and the kinetic curves were fitted using a 1:1 langmuir model. Affinity was determined using the method of Example 5 using biacore T200, and the results are shown as in FIGS. 11B-11G. […]
Each entry gets not satisfied if its koff stays under 0.0001 s⁻¹, and satisfied if its koff is 0.0001 s⁻¹ or above.

Observe how each entry below is paired with its result.
2C7 (scFv_Fc form) (Fc fusion, not shown: human Fc segment of the eukaryotic expression vector V152) scFv: EVQLLESGGGLVQPGGSLRLSCAASGFTFKLPAMSWVRQAPGKGLEWVSAITGSGGSTYYADSVKGRFTISRDNSKNTLYLQMNSLRAEDTAVYYCAKVRYGWGAGAFDYWGQGTLVTVSSGGGGSGGGGSGGGGSDIQMTQSPSTLSASVGDRVTITCRASQSISSWLAWYQQKPGKAPKLLIYDASSLESGVPSRFSGSGSGTEFTLTISSLQPDDFATYYCQQYDTYPPITFGQGTKVEIK
not satisfied
2D4 (scFv_Fc form) (Fc fusion, not shown: human Fc segment of the eukaryotic expression vector V152) scFv: EVQLLESGGGLVQPGGSLRLSCAASGFTFRKYAMGWVRQAPGKGLEWVSGISGSVGSTYYADSVKGRFTISRDNSKNTLYLQMNSLRAEDTAVYYCAKVRYGWGAGAFDYWGQGTLVTVSSGGGGSGGGGSGGGGSDIQMTQSPSTLSASVGDRVTITCRASQSISSWLAWYQQKPGKAPKLLIYDASSLESGVPSRFSGSGSGTEFTLTISSLQPDDFATYYCQQYDTYPPITFGQGTKVEIK
satisfied

Does koff meet or surpass 0.0001 s⁻¹ for 5G3 (scFv_Fc form) (Fc fusion, not shown: human Fc segment of the eukaryotic expression vector V152) scFv: EVQLLESGGGLVQPGGSLRLSCAASGFTFSSYVLSWVRQAPGKGLEWVSAIRGSAGNTYYADSVKGRFTISRDNSKNTLYLQMNSLRAEDTAVYYCARVAFSGSFDYWGQGTLVTVSSGGGGSGGGGSGGGGSDIQMTQSPSTLSASVGDRVTITCRASQSISSWLAWYQQKPGKAPKLLIYDASSLESGVPSRFSGSGSGTEFTLTISSLQPDDFATYYCQQRNRYPPTFGQGTKVEIK ? satisfied

Does koff meet or surpass 0.0001 s⁻¹ for 1B11 (scFv_Fc form) (Fc fusion, not shown: human Fc segment of the eukaryotic expression vector V152) scFv: EVQLLESGGGLVQPGGSLRLSCAASGFTFSRDALNWVRQAPGKGLEWVSAISGSGGSTFYADSVKGRFTISRDNSKNTLYLQMNSLRAEDTAVYYCAKVRYGWGAGAFDYWGQGTLVTVSSGGGGSGGGGSGGGGSDIQMTQSPSTLSASVGDRVTITCRASQSISSWLAWYQQKPGKAPKLLIYDASSLESGVPSRFSGSGSGTEFTLTISSLQPDDFATYYCQQYDTYPPITFGQGTKVEIK ? satisfied

Does koff meet or surpass 0.0001 s⁻¹ for 5D7 (scFv_Fc form) (Fc fusion, not shown: human Fc segment of the eukaryotic expression vector V152) scFv: EVQLLESGGGLVQPGGSLRLSCAASGFTFSNYAMSWVRQAPGKGLEWVSGIRSSGGRTFYADSVKGRFTISRDNSKNTLYLQMNSLRAEDTAVYYCARVAFSGSFDYWGQGTLVTVSSGGGGSGGGGSGGGGSDIQMTQSPSTLSASVGDRVTITCRASQSISSWLAWYQQKPGKAPKLLIYDASSLESGVPSRFSGSGSGTEFTLTISSLQPDDFATYYCQQRNRYPPTFGQGTKVEIK ? satisfied

Recorded values, source patent US20190359723A1.
